# Test system: human maximum recommended daily dose, FDA database
# Run Description: DSSTox (FDAMDD) FDA Maximum (Recommended) Daily Dose Database
# Experimental Conditions: TherapeuticCategory: anticholinergic; active compounds read low
Param label: returns YES when maximum recommended daily dose (mmol/kg-bw/day) < 0.009, returns NO otherwise, including exact equality.

Use these answered entries as a reference point.
[
  {
    "Compound": "C[N+]1(C)CCN(CC(O)(c2ccccc2)C2CCCCC2)CC1 (stereo unspecified)",
    "Answer Label": "YES"
  },
  {
    "Compound": "CCCN(CCC)C(=O)C(CCC(=O)O)NC(=O)c1ccccc1 (stereo unspecified)",
    "Answer Label": "NO"
  },
  {
    "Compound": "C[N+]1(C)CCC(=C(c2ccccc2)c2ccccc2)CC1",
    "Answer Label": "NO"
  },
  {
    "Compound": "CN1[C@@H]2CC[C@H]1CC(OC(=O)C(O)c1ccccc1)C2 (stereo partly specified)",
    "Answer Label": "YES"
  },
  {
    "Compound": "CN1CCCN=C1COC(=O)C(O)(c1ccccc1)C1CCCCC1 (stereo unspecified)",
    "Answer Label": "YES"
  },
  {
    "Compound": "C[N+]1([O-])[C@@H]2CC[C@H]1CC(OC(=O)C(CO)c1ccccc1)C2 (stereo partly specified)",
    "Answer Label": "YES"
  }
]

Just wondering, is maximum recommended daily dose (mmol/kg-bw/day) of `CC(C)[N+](C)(CCOC(=O)C1c2ccccc2Oc2ccccc21)C(C)C` below 0.009?
YES

Just wondering, is maximum recommended daily dose (mmol/kg-bw/day) of C[N+]1(C)CCC(OC(=O)CC(O)(c2ccccc2)C2CCCC2)C1 (stereo unspecified) below 0.009?
YES

Just wondering, is maximum recommended daily dose (mmol/kg-bw/day) of CC[N+](CC)(CC)CCC(O)(c1ccccc1)C1CCCCC1 (stereo unspecified) below 0.009?
NO

Just wondering, is maximum recommended daily dose (mmol/kg-bw/day) of `CC[N+](C)(CC)CCOC(=O)C1c2ccccc2Oc2ccccc21` below 0.009?
NO

Just wondering, is maximum recommended daily dose (mmol/kg-bw/day) of CCCC(CCC)C(=O)OC1C[C@H]2CC[C@@H](C1)[N+]2(C)C (stereo partly specified) below 0.009?
YES

###

# Test system: human maximum recommended daily dose, FDA database
# Run Description: DSSTox (FDAMDD) FDA Maximum (Recommended) Daily Dose Database
# Experimental Conditions: TherapeuticCategory: diagnostic aid; active compounds read low
Readout Name: maximum recommended daily dose (mmol/kg-bw/day)
One number for each entry.

[
  {
    "Molecule": "CCC(Cc1c(I)cc(I)c(N)c1I)C(=O)O (stereo not given)",
    "Reported Measurement": 0.175
  },
  {
    "Molecule": "CNC(=O)c1c(I)c(C(=O)NCC(=O)Nc2c(I)c(C(=O)O)c(I)c(C(=O)NCCO)c2I)c(I)c(N(C)C(C)=O)c1I",
    "Reported Measurement": 0.0788
  },
  {
    "Molecule": "CC(C)(C(=O)c1cccnc1)c1cccnc1",
    "Reported Measurement": 0.331
  }
]

Value sought for every listed molecule: maximum recommended daily dose (mmol/kg-bw/day).
1. O=C(O)c1c(Cl)c(Cl)c(Cl)c(Cl)c1-c1c2cc(I)c(=O)c(I)c-2oc2c(I)c(O)c(I)cc12
2. CC(=O)N(CC(O)CO)c1c(I)c(C(=O)NCC(O)CO)c(I)c(C(=O)NCC(O)CO)c1I (stereo not given)

1. 0.00197
2. 0.134

###

Assignment: determine reported maximum recommended daily dose (mmol/kg-bw/day) for the given compounds.
# Test system: human maximum recommended daily dose, FDA database
# Run Description: DSSTox (FDAMDD) FDA Maximum (Recommended) Daily Dose Database
# Experimental Conditions: TherapeuticCategory: antiemetic; active compounds read low
Answers are plain numbers.

// below: answered compounds
[
  {
    "Compound": "CN1CCN(CCCN2c3ccccc3Sc3ccc(Cl)cc32)CC1",
    "Reported Measurement": 0.00447
  },
  {
    "Compound": "Cc1cccc(CN2CCN(C(c3ccccc3)c3ccc(Cl)cc3)CC2)c1 (stereo not given)",
    "Reported Measurement": 0.00427
  },
  {
    "Compound": "CC(C)(C)c1ccc(CN2CCN(C(c3ccccc3)c3ccc(Cl)cc3)CC2)cc1 (stereo not given)",
    "Reported Measurement": 0.00577
  }
]

Value sought for every listed compound: maximum recommended daily dose (mmol/kg-bw/day).
1. CN1CCN(C(c2ccccc2)c2ccccc2)CC1
2. CN1[C@@H]2CCC[C@H]1CC(NC(=O)c1nn(C)c3ccccc13)C2 (stereo not given in full)

1: 0.0125; 2: 3.2e-05

###

# Test system: human maximum recommended daily dose, FDA database
# Run Description: DSSTox (FDAMDD) FDA Maximum (Recommended) Daily Dose Database
# Experimental Conditions: TherapeuticCategory: antihypertensive; antiglaucomic; active compounds read low
# Source text: The Food and Drug Administration (FDA) Center for Drug Evaluation and Research, Office of Pharmaceutical Science, Informatics and Computational Safety Analysis Staff's Maximum Recommended Daily Dose (FDAMDD) database contains values for over 1200 pharmaceuticals listed in Martindale: The Extra Pharmacopoeia (1973, 1983, and 1993) and The Physicians' Desk Reference (1995 and 1999). […]
Readout Name: maximum recommended daily dose (mmol/kg-bw/day)

Fill in maximum recommended daily dose (mmol/kg-bw/day) for CC(C)NCC(O)COc1ccc(CCOCC2CC2)cc1 (stereo unspecified) tested with human maximum recommended daily dose, FDA database.
0.00217

###

# System: human maximum recommended daily dose, FDA database
# Run Description: DSSTox (FDAMDD) FDA Maximum (Recommended) Daily Dose Database
# Experimental Conditions: TherapeuticCategory: antidepressant; antipsychotic; active compounds read low
Readout Name: maximum recommended daily dose (mmol/kg-bw/day)
Give bare numbers.

Return reported maximum recommended daily dose (mmol/kg-bw/day). Input compound: `OCCN1CCN(CCCN2c3ccccc3C=Cc3ccccc32)CC1`
0.0138

###

# Tested on: human maximum recommended daily dose, FDA database
# Run Description: DSSTox (FDAMDD) FDA Maximum (Recommended) Daily Dose Database
# Experimental Conditions: TherapeuticCategory: glucocorticoid; active compounds read low
Readout Name: maximum recommended daily dose (mmol/kg-bw/day)
Answers are plain numbers.

// below: answered compounds
[
  {
    "Smiles Repr": "CC(=O)OCC(=O)[C@@]1(O)CC[C@H]2[C@@H]3CCC4=CC(=O)CC[C@]4(C)[C@H]3C(=O)C[C@@]21C",
    "Reported Measurement": 0.0124
  },
  {
    "Smiles Repr": "C[C@]12CCC(=O)C=C1CC[C@@H]1[C@@H]2C(=O)C[C@@]2(C)[C@H]1CC[C@]2(O)C(=O)CO",
    "Reported Measurement": 0.0139
  },
  {
    "Smiles Repr": "CC(C)(C)CC(=O)OCC(=O)[C@@]1(O)CC[C@H]2[C@@H]3CCC4=CC(=O)C=C[C@]4(C)[C@H]3[C@@H](O)C[C@@]21C",
    "Reported Measurement": 0.00726
  }
]

Value sought for every listed compound: maximum recommended daily dose (mmol/kg-bw/day).
1. C[C@H]1C[C@H]2[C@@H]3CCC4=CC(=O)C=C[C@]4(C)[C@@]3(F)[C@@H](O)C[C@]2(C)[C@@]1(OC(=O)c1ccccc1)C(=O)CO
2. C[C@H]1C[C@H]2[C@@H]3CCC4=CC(=O)C=C[C@]4(C)[C@H]3C(=O)C[C@]2(C)[C@@]1(O)C(=O)CO
3. C[C@H]1C[C@@H]2[C@H]([C@@H](O)C[C@@]3(C)[C@H]2CC[C@]3(O)C(=O)CO)[C@@]2(C)C=CC(=O)C=C12
4. C[C@]12C=CC(=O)C=C1CC[C@@H]1[C@@H]2[C@@H](O)C[C@@]2(C)[C@H]1CC[C@]2(O)C(=O)COC(=O)CCC(=O)O

0.000302
0.00215
0.0111
0.0069

Value sought for every listed compound: maximum recommended daily dose (mmol/kg-bw/day).
1. CCCCCCCCCCCCCCCCCC(=O)OCC(=O)OCC(=O)[C@@]1(O)CC[C@H]2[C@@H]3CCC4=CC(=O)C=C[C@]4(C)[C@H]3[C@@H](O)C[C@@]21C
2. CCC(=O)OCC(=O)[C@@]1(OC(=O)CC)[C@@H](C)C[C@H]2[C@@H]3CCC4=CC(=O)C=C[C@]4(C)[C@@]3(F)[C@@H](O)C[C@@]21C

1: 0.00486; 2: 0.000297

Value sought for every listed compound: maximum recommended daily dose (mmol/kg-bw/day).
1. CC(=O)OCC(=O)[C@@]1(O)CC[C@H]2[C@@H]3C[C@H](C)C4=CC(=O)C=C[C@]4(C)[C@H]3[C@@H](O)C[C@@]21C
2. CCCCC(=O)O[C@]1(C(=O)CO)[C@@H](C)C[C@H]2[C@@H]3CCC4=CC(=O)C=C[C@]4(C)[C@@]3(F)[C@@H](O)C[C@@]21C

1. 0.01
2. 0.000315

Source listed as PubChem BioAssay AID1195.
